System: human acute myelogenous leukemia cell line HL-60
Test: Ability to induce differentiation of HL-60 cells (oxygen radical production after phorbol ester, WST-1)
Assay type: cell-based
Settings: 72 hours incubation, then WST-1 and phorbol 12,13-didecanoate for 4 hours, absorbance at 450 nm
Protocol: It is known that the human acute myelogenous leukemia cell line HL-60is differentiated into neutrophil-like cells by active vitamin D or the like. […] As an index of the ability to induce differentiation of the HL-60cells, the amount of the oxygen radical produced by stimulation with a phorbol ester was measured, and the compounds of the invention mentioned in Examples were compared with maxacalcitol with respect to the vitamin D3activity thereof. […]
parameter measured: EC50 (nM)

compound | value
C=C1C(O)CC(=CC=C2CCCC3(C)C2CCC3C(C)OC(=O)C=CC(O)(CC)CC)CC1O (stereo not drawn) | 0.31

I. C=C1C(=CC=C2CCCC3(C)C2CCC3C(C)OC(=O)CC(O)(C(F)(F)F)C(F)(F)F)CC(O)CC1O (stereo not drawn)
II. C=C1/C(=C\C=C2/CCC[C@]3(C)C([C@H](C)OC(=O)CCC(C)(O)C(F)(F)F)=CC[C@@H]23)C[C@@H](O)C[C@@H]1O (single isomer, unassigned)
Query: Thinking about recorded EC50 values, which is higher, I or II ? Select an item and report its label.
Result: I

###

Tested on: human acute myelogenous leukemia cell line HL-60
Experiment: Ability to induce differentiation of HL-60 cells (oxygen radical production after phorbol ester, WST-1)
Format: cell-based
Conditions: 72 hours incubation, then WST-1 and phorbol 12,13-didecanoate for 4 hours, absorbance at 450 nm
parameter measured: EC50 (nM)

The examples below pair each entry with its known result.
molecule | value
CC(OC(=O)CCC(C)(O)C(F)(F)F)C1=CCC2C(=CC=C3CC(O)CC(O)C3)CCCC12C (stereo not shown) [Compound of Example 47] | 0.63
C=C1C(=CC=C2CCCC3(C)C2CCC3C(C)OC(=O)C=CC(O)(CC)CC)CC(O)CC1O (stereo not shown) [Compound of Example 10] | 0.99

I. C=C1C(=CC=C2CCCC3(C)C2CCC3C(C)OC(=O)CC(O)C(C)C)CC(O)CC1O (stereo not shown) [Compound of Example 5]
II. CC(OC(=O)CCC(C)(O)C(F)(F)F)C1CCC2C(=CC=C3CC(O)CC(O)C3)CCCC21C (stereo not shown) [Compound of Example 43]
Query: Lower value for measured EC50? Options: I , II // caller expects the label of the chosen entry
Result: II

###

Tested on: human acute myelogenous leukemia cell line HL-60
Assay: Ability to induce differentiation of HL-60 cells (oxygen radical production after phorbol ester, WST-1)
Type: cell-based
Conditions: 72 hours incubation, then WST-1 and phorbol 12,13-didecanoate for 4 hours, absorbance at 450 nm
parameter measured: EC50 (nM)

# annotated cases, reported EC50 shown
compound | measured on | EC50, nM
CC(OC(=O)CCC(C)(O)C(F)(F)F)C1CCC2C(=CC=C3CC(O)CC(O)C3)CCCC21C (stereo not shown) [Compound of Example 72] | human acute myelogenous leukemia cell line HL-60 | 0.17
C=C1C(O)CC(=CC=C2CCCC3(C)C2CCC3C(C)OC(=O)CCC(C)(C)O)CC1O (stereo not shown) [Compound of Example 41] | human acute myelogenous leukemia cell line HL-60 | 0.26
C=C1/C(=C\C=C2/CCC[C@]3(C)[C@@H]([C@H](C)OC(=O)CCC(C)(C)O)CC[C@@H]23)C[C@@H](O)C[C@@H]1O [Compound of Example 1] | human acute myelogenous leukemia cell line HL-60 | 1.5
CC(OC(=O)CCC(C)(O)C(F)(F)F)C1CCC2C(=CC=C3CC(O)CC(O)C3)CCCC21C (stereo not shown) [Compound of Example 73] | human acute myelogenous leukemia cell line HL-60 | 1.3
CC(OC(=O)CCC(C)(O)C(F)(F)F)C1CCC2C(=CC=C3CC(O)C(C)C(O)C3)CCCC21C (stereo not shown) [Compound of Example 60] | human acute myelogenous leukemia cell line HL-60 | 0.053

a. C=C1C(=CC=C2CCCC3(C)C2CCC3C(C)OC(=O)CC(C)(O)C(F)(F)F)CC(O)CC1O (stereo not shown) [Compound of Example 4]
b. C[C@H](OC(=O)CC[C@@](C)(O)C(F)(F)F)C1=CC[C@H]2/C(=C/C=C3C[C@@H](O)C[C@H](O)C3)CCC[C@]12C [Compound of Example 69]
Query: Response body: label of entry with the larger EC50; valid values a , b . Lab log: write the label of the selected item as the result.
Result: b
(b: 0.77 nM, a: 0.31 nM)
